The origin of these recorded values is patent US9181193B2.

- Tested on: Colo205 (human colon cancer cells)
- Assay Details: MTT in vitro anti-tumor activity test, Colo205
- Assay type: cell-based
- Measurement Setup: Colo205, 100 μg/mL, MTT, 72 h
Metric: Colo205 100 μg/mL IC % (%)
Give bare numbers, in %.

Known results for molecules:
[[record]]
molecule = "COc1ccc2nc(OCCN3CCCC3)c3c(c2c1)C(=O)c1cc(Br)ccc1-3 [Compound 18]"
assayed_system = "Colo205 (human colon cancer cells)"
value_units = "%"
readout_value = 43.88

[[record]]
molecule = "COc1ccc2c(c1)C(=O)c1c-2c(OCCN2CCCCC2)nc2ccc(OC)cc12 [Compound 15]"
assayed_system = "Colo205 (human colon cancer cells)"
value_units = "%"
readout_value = 100

[[record]]
molecule = "COc1ccc2c(c1)C(=O)c1c-2c(OCCN2CCCCC2)nc2cc(OC)c(OC)cc12 [Compound 24]"
assayed_system = "Colo205 (human colon cancer cells)"
value_units = "%"
readout_value = 98.38

[[record]]
molecule = "CCN(CC)CCOc1nc2cc(OC)c(OC)cc2c2c1-c1ccc(OC)cc1C2=O [Compound 21]"
assayed_system = "Colo205 (human colon cancer cells)"
value_units = "%"
readout_value = 88.97

[[record]]
molecule = "COc1ccc2c(c1)C(=O)c1c-2c(OCCN2CCCC2)nc2ccccc12 [Compound 3]"
assayed_system = "Colo205 (human colon cancer cells)"
value_units = "%"
readout_value = 92.33


Record Colo205 100 μg/mL IC % for all entries; do not skip any.
1. COc1ccc2c(c1)C(=O)c1c-2c(OCCCN(C)C)nc2cc(OC)c(OC)cc12 [Compound 25]
2. COc1ccc2c(c1)C(=O)c1c-2c(OCCCN(C)C)nc2ccccc12 [Compound 6]
3. CCN(CC)CCOc1nc2ccc(OC)cc2c2c1-c1ccc(OC)cc1C2=O [Compound 14]
4. COc1ccc2c(c1)C(=O)c1c-2c(OCCN2CCCC2)nc2cc(OC)c(OC)cc12 [Compound 22]
5. COc1ccc2c(c1)C(=O)c1c-2c(OCCCN(C)C)nc2ccc(OC)cc12 [Compound 16]
6. COc1ccc2nc(OCCn3ccnc3)c3c(c2c1)C(=O)c1cc(Br)ccc1-3 [Compound 19]

90.36
100
97.47
93.84
100
80.89

---

- Tested on: MDA-MB-435 (human breast cancer cells)
- Assay Details: MTT in vitro anti-tumor activity test, MDA-MB-435
- Type: cell-based
- Measurement Setup: MDA-MB-435 human breast cancer cells, MTT, 72 h
Metric: MDA-MB-435 IC50

# count of solved cases: 5
[[record]]
compound_structure_string = "COc1ccc2c(c1)C(=O)c1c-2c(OCCN2CCCC2)nc2ccccc12"
assayed_system = "MDA-MB-435 (human breast cancer cells)"
readout_value = "26.55 µg/mL"

[[record]]
compound_structure_string = "COc1ccc2c(c1)C(=O)c1c-2c(OCCN2CCOCC2)nc2ccccc12"
assayed_system = "MDA-MB-435 (human breast cancer cells)"
readout_value = ">100 µg/mL"

[[record]]
compound_structure_string = "COc1cc2nc(OCCCN(C)C)c3c(c2cc1OC)C(=O)c1cc(Cl)ccc1-3"
assayed_system = "MDA-MB-435 (human breast cancer cells)"
readout_value = "1.45 µg/mL"

[[record]]
compound_structure_string = "COc1ccc2c(c1)C(=O)c1c-2c(OCCCN(C)C)nc2cc(OC)c(OC)cc12"
assayed_system = "MDA-MB-435 (human breast cancer cells)"
readout_value = "2.66 µg/mL"

[[record]]
compound_structure_string = "COc1ccc2c(c1)C(=O)c1c-2c(OCCN2CCCCC2)nc2ccc(OC)cc12"
assayed_system = "MDA-MB-435 (human breast cancer cells)"
readout_value = "6.88 µg/mL"


Please go through the list and note MDA-MB-435 IC50 for each compound.
1. COc1ccc2c(c1)C(=O)c1c-2c(OCCn2ccnc2)nc2ccccc12
2. COc1cc2nc(OCCn3ccnc3)c3c(c2cc1OC)C(=O)c1cc(Cl)ccc1-3
3. COc1ccc2c(c1)C(=O)c1c-2c(OCCN(C)C)nc2cc(OC)c(OC)cc12

[">100 µg/mL", "91.52 µg/mL", "0.99 µg/mL"]
